The origin of these recorded values is PubChem BioAssay (NCI).

- Tested on: LOX IMVI melanoma
- Test name: NCI-60 one-dose screen, 48 h
- Setup conditions: 10 µM
- Description: Growth inhibition of the LOX IMVI human tumor cell line is measured as a screen for anti-cancer activity. Cells are grown in 96 well plates and exposed to the test compound for 48 hours. Compounds are tested at a single concentration, which is 10^-5 M for most compounds. The reported endpoint is percent growth (GI% or GIPRCNT), where numbers from 0 - 100% represent growth inhibition, and numbers from -100% - 0 represent cell death. For example, a value of 40 represents 60% growth inhibition. […]
About 83,000 compounds went through this panel and 20% of them were active in at least one assay; those are over-represented in the sample as a whole. The source made the active and inactive calls. The calls were made as follows: active = growth percent below 10; inactive = the rest.
Can you answer with just one of these options? 1 (yes) = active, 0 (no) = inactive

Compound	Assigned class
Cc1ccc(C(=O)/C=C/c2ccccc2)s1	0 (no)
C(=N\Nc1ncnc2sc3c(c12)CCNC3)/c1cccc2ccccc12	0 (no)

Next, consider the following compound.
# outcome recorded in this test, key = C/C(=C/CCC(C)[C@@H]1CC[C@]2(C)C3=C(CC[C@@]12C)[C@@]1(C)CCC(=O)C(C)(C)[C@@H]1CC3)C(=O)O (stereo partly drawn)
1 (yes)
